- testSystem: Avi-KRAS WT (1-169) GppNHp/RAF1 RBD-3xFLAG (52-151) (Homo sapiens, UniProt P01116)
- Construct: Avi-KRAS WT (1-169)
- Sequence (P01116 1-169 isoform P01116-2): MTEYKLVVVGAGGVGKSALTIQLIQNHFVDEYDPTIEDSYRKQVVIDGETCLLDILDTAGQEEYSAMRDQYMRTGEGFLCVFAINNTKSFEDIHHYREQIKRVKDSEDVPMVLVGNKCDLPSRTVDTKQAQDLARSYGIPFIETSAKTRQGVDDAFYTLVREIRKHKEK
- assayInfo: Raf1-KRAS WT-GppNHP disruption HTRF assay (Biological Example 1)
- Format: binding
- testConditions: KRAS WT-GppNHp/RAF1 RBD HTRF
recordedEndpoint: IC50

compound: CCN(c1nc(OC[C@@]23CCCN2C[C@H](F)C3)nc2c(F)c(-c3ccc(F)c4sc(N)c(C#N)c34)c(C(F)(F)F)cc12)[C@H]1CCN(C(=O)C2CC(F)(F)C2)C1 (atropisomer, axis not shown)
measurement: < 100 nM

compound: CCC(=O)N1CC[C@@H](N(CC)c2nc(OC[C@@]34CCCN3C[C@H](F)C4)nc3c(F)c(-c4ccc(F)c5sc(N)c(C#N)c45)c(C(F)(F)F)cc23)[C@H]1C [Compound 405]
measurement: 100 to 1000 nM

compound: CCN(c1nc(OC[C@@]23CCCN2C[C@H](F)C3)nc2c(F)c(-c3ccc(F)c4sc(N)c(C#N)c34)c(C(F)(F)F)cc12)[C@@H]1CC(=O)N(C2CC2)C1
measurement: < 100 nM

compound: CCN(c1nc(OC[C@@]23CCCN2C[C@H](F)C3)nc2c(F)c(-c3ccc(F)c4sc(N)c(C#N)c34)c(C(F)(F)F)cc12)[C@H]1CCN(C(=O)CCC#N)C1 (atropisomer, axis not shown)
measurement: < 100 nM

Moving on to another compound below.
CCN(c1nc(OC[C@@]23CCCN2C[C@H](F)C3)nc2c(F)c(-c3ccc(F)c4sc(N)c(C#N)c34)c(C(F)(F)F)cc12)[C@@H]1CCN(C(=O)C2CC2)[C@@H]1C [Compound 406] yielded IC50 of 100 to 1000 nM

---

Hi there, I'd appreciate the recorded pIC50 for every entry that follows.
- testSystem: Avi-KRAS WT (1-169) GppNHp/RAF1 RBD-3xFLAG (52-151) (Homo sapiens, UniProt P01116)
- Construct: Avi-KRAS WT (1-169)
- assayInfo: Raf1-KRAS WT-GppNHP disruption HTRF assay (Biological Example 1)
- Assay type: binding
- testConditions: KRAS WT-GppNHp/RAF1 RBD HTRF
pIC50: −log10 of the molar value.

molecule: C[C@H]1[C@H](O)CCCN1c1nc(OC[C@@]23CCCN2C[C@H](F)C3)nc2c(F)c(-c3ccc(F)c4sc(N)c(C#N)c34)c(C(F)(F)F)cc12
measurement: 6.00 to 7.00

Batch request: pIC50 for each of the following molecules.
1. CC(=O)N1C[C@@H](N(C)c2nc(OC[C@@]34CCCN3C[C@H](F)C4)nc3c(F)c(-c4ccc(F)c5sc(N)c(C#N)c45)c(C(F)(F)F)cc23)C[C@H]1CC#N
2. N#Cc1c(N)sc2c(F)ccc(-c3c(C(F)(F)F)cc4c(N5CCCC[C@H](O)C5)nc(OC[C@@]56CCCN5C[C@H](F)C6)nc4c3F)c12
3. N#Cc1c(N)sc2c(F)ccc(-c3c(C(F)(F)F)cc4c(N5CCC[C@@H](CO)C5)nc(OC[C@@]56CCCN5C[C@H](F)C6)nc4c3F)c12
4. CN(C)C(=O)c1cc2n(n1)CCN(c1nc(OC[C@@]34CCCN3C[C@H](F)C4)nc3c(F)c(-c4ccc(F)c5sc(N)c(C#N)c45)c(C(F)(F)F)cc13)CC2
5. C[C@]1(CO)CCN1c1nc(OC[C@@]23CCCN2C[C@H](F)C3)nc2c(F)c(-c3ccc(F)c4sc(N)c(C#N)c34)c(C(F)(F)F)cc12

1. 5.00 to 6.00
2. 6.00 to 7.00
3. 6.00 to 7.00
4. 5.00 to 6.00
5. 5.00 to 6.00

For each of the items listed, what is its pIC50?
1. CC(=O)N1CC[C@](C)(N(C)c2nc(OC[C@@]34CCCN3C[C@H](F)C4)nc3c(F)c(-c4ccc(F)c5sc(N)c(C#N)c45)c(C(F)(F)F)cc23)C1
2. C[C@@H]1[C@H](N(C)c2nc(OC[C@@]34CCCN3C[C@H](F)C4)nc3c(F)c(-c4ccc(F)c5sc(N)c(C#N)c45)c(C(F)(F)F)cc23)CCN1C(=O)C1CC1 (atropisomer, axis not shown) [Compound 334]
3. C[C@@H]1[C@H](N(C)c2nc(OC[C@]34C[C@@H](F)CN3CC3(CC3)C4)nc3c(F)c(-c4ccc(F)c5sc(N)c(C#N)c45)c(C(F)(F)F)cc23)CCN1C(=O)C1CC1
4. CCOC(=O)N1CC[C@H](N(CC)c2nc(OC[C@@]34CCCN3C[C@H](F)C4)nc3c(F)c(-c4ccc(F)c5sc(N)c(C#N)c45)c(C(F)(F)F)cc23)C1

["5.00 to 6.00", "< 5.00", "6.00 to 7.00", "6.00 to 7.00"]

Data point: CCN(c1nc(OC[C@@]23CCCN2C[C@H](F)C3)nc2c(F)c(-c3ccc(F)c4sc(N)c(C#N)c34)c(C(F)(F)F)cc12)[C@H]1CCN(C(=O)C2CC2(F)F)C1 (some centres unmarked) ; pIC50 = > 7.00

Hello, the source for this data is patent US20260042764A1, in case you need it.
